Data provenance: ChEMBL document CHEMBL1155356

# ASSAY_METHOD_TEXT: Apparent permeability from apical to basolateral side in MDCK2 cells at 5 uM after 120 mins
# Type: ADME, cell-based, Canis lupus familiaris, MDCK-II
# CONDITION_NOTES: dog, MDCK
METRIC_NAME: Papp A→B at 2 h, 5 µM (×10⁻⁶ cm/s)

# ENTRY_SMILES, METRIC_NAME, REPORTED_RESULT
records = [
    ("C[C@@H]1c2c[nH]nc2-c2cc(F)ccc2N1S(=O)(=O)c1ccc(Cl)cc1", "Papp A→B at 2 h, 5 µM", 19.8),
    ("O=S(=O)(c1ccc(C(F)(F)F)cn1)N1c2ccc(F)cc2-c2n[nH]cc2[C@H]1C1CC1", "Papp A→B at 2 h, 5 µM", 24.9),
]

----------
# ASSAY_METHOD_TEXT: Oxidative metabolic stability in mouse liver microsomes at 1 uM after 30 mins in presence of 1 mM NADPH
# Format: ADME, Microsome
# CONDITION_NOTES: liver microsomes, read-out: Stability
METRIC_NAME: remaining at 0.5 h, 1 µM (%)

# MOLECULE, METRIC_NAME, ENDPOINT_UNIT, REPORTED_RESULT
measured = [
    ("CC1c2cn[nH]c2-c2ccc(O)cc2N1S(=O)(=O)c1ccc(Cl)cc1 (racemic)", "remaining at 0.5 h, 1 µM", "%", 27),
    ("C[C@@H]1c2c[nH]nc2-c2cc(F)ccc2N1S(=O)(=O)c1ccc(Cl)cc1", "remaining at 0.5 h, 1 µM", "%", 7),
]

1 = CC1c2cn[nH]c2-c2ccccc2N1S(=O)(=O)c1cccnc1 (racemic)
2 = O=S(=O)(c1ccc(C(F)(F)F)cn1)N1c2ccc(F)cc2-c2n[nH]cc2[C@H]1C1CC1
3 = COc1ccc2c(c1)N(S(=O)(=O)c1ccc(Cl)cc1)C(C)c1c[nH]nc1-2 (racemic)
Number of molecules to sort: 3. Sort criterion: remaining at 0.5 h, 1 µM, ascending. Put the labels in the requested order and write them down. 3, 1, 2

----------
# ASSAY_METHOD_TEXT: Oxidative metabolic stability in mouse liver microsomes at 1 uM after 30 mins in presence of 1 mM NADPH
# Assay type: ADME, Microsome
# CONDITION_NOTES: liver microsomes, read-out: Stability
METRIC_NAME: remaining at 0.5 h, 1 µM (%)

Here are 2 compounds together with their reported answers.
# COMPOUND, remaining at 0.5 h, 1 µM (%)
rows = [
    ("O=S(=O)(c1ccc(C(F)(F)F)cc1)N1c2cc(-c3cscn3)ccc2-c2n[nH]cc2C1C1CC1 (racemic)", 32),
    ("O=S(=O)(c1ccc(Cl)cn1)N1c2ccc(F)cc2-c2n[nH]cc2C1C1CC1 (racemic)", 49),
]

I = Nc1ccc(S(=O)(=O)N2c3cc(F)c(F)cc3-c3n[nH]cc3C2C2CC2)cc1 (racemic)
II = CC1c2c[nH]nc2-c2cc(Cl)sc2N1S(=O)(=O)c1ccc(C(F)(F)F)cc1 (racemic)
III = N#Cc1ccc2c(c1)N(S(=O)(=O)c1ccc(C(F)(F)F)cc1)C(C1CC1)c1c[nH]nc1-2 (racemic)
Rank ascending by remaining at 0.5 h, 1 µM. Write the labels in rank order as requested. II, I, III
(II: 18%, I: 35%, III: 77%)
